Record form. Attribute: pKd. Fill in for each entry.
Target: T1, human IL-1α (human, UniProt P01583 113-271)
T1 construct: also called IL-1alpha; hIL-1α
T1 sequence (looked up): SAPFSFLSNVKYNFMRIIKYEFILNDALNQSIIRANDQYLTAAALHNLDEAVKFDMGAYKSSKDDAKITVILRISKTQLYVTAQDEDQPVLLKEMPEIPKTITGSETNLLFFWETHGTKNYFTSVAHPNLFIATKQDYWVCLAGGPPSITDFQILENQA
Experiment: Table 62 KD; BIAcore presumed
Answers are plain numbers, as −log10 of the molar value.

Examples with answers:
[[record]]
binder = "ABT1-95-10 (other, VK dAb) VL: DIQMTQSPSSLSASVGDRVTITCRASQPIQGNLRWYQQKPGKAPKLLIYSSSYLERGVPSRFSGSGSGTDFTLTISSLHPEDLATYHCQQGYRWPVTFGQGTKVEIKR"
attribute_measured = "pKd"
observed_value = 9.05

[[record]]
binder = "ABT1-95-14 (other, VK dAb) VL: DIQMTQSPSSLSASVGDRVTITCRASQPIVKNLRWYQQKPGKAPKLLIYSSSYLERGVPSRFSGSGSGTDFTLTISSLQPEDFATYHCQQGYRWPVTFGQGTKVEIKR"
attribute_measured = "pKd"
observed_value = 8.92


Moving on to the next binder.
Ask: Provide only the value of recorded pKd for ABT1-95-11 (other, VK dAb) VL: DIQMTQSPSSLSASVGDRVTITCRASQPIQGNLRWYQQKPGIAPKLLIYSSSYLERGVPSRFSGSGSGTDFTLTISSLHPEDLATYHCQQGYRWPVTFGQGTKVEIKR
Result: 8.96

# credit: patent US20090291081A1
